test system: HCT116; experiment: AC50 cell viability (CellTiter-Glo); higher = less potent; settings: 48 h;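 note: HCT116 colorectal carcinoma cells screened at five concentrations per compound, luminescent viability scaled between DMSO wells and empty wells on each plate, curves fitted per compound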
Mark TRUE only when AC50 cell viability stays strictly below 10 µM. Values equal to the cut-off are FALSE.

QUERY: Please indicate whether the reported AC50 cell viability of CCN(CC)CCNc1ccc(C)c2sc3ccccc3c(=O)c12 [Lucanthone] is strictly below 10 µM.
RESULT: FALSE

QUERY: # check: AC50 cell viability < 10 µM for Clc1ccc(C2(c3ccc(-c4cn[nH]c4)cc3)CCNCC2)cc1 [AT-7867]
RESULT: FALSE

QUERY: Bench note: check whether CC(C)(O)[C@H]1CC[C@H](Nc2ccc3ncc(-c4cccc(C(F)(F)F)c4)n3n2)CC1 [TP-3654] shows AC50 cell viability below 10 µM
RESULT: TRUE

QUERY: Please state whether AC50 cell viability is below 10 µM for C=C1C(=O)O[C@H]2C[C@H](C)C(/C=C/C(C)=O)=CC[C@H]12 [Xanthatin]
RESULT: TRUE

QUERY: Answer whether the compound CC(C)(C)Cn1c(N)nc2ccc(-c3[nH]c(C(C)(C)C)nc3-c3ccc(F)cc3)nc21 has AC50 cell viability strictly less than 10 µM
RESULT: FALSE

QUERY: Does the reported AC50 cell viability of Cc1c(O)cccc1C(=O)NC(CSc1ccccc1)C(O)CN1CC2CCCCC2CC1C(=O)NC(C)(C)C (stereo unspecified) [Nelfinavir] stay below 10 µM?
RESULT: FALSE

QUERY: Dear colleague, could you confirm whether AC50 cell viability of CC1(COc2ccc3c(c2)ncn3-c2ccc3cccc(N4CCC(N)CC4)c3n2)COC1 [Crenolanib] falls below 10 µM? Thanks.
RESULT: TRUE

QUERY: Please indicate whether the reported AC50 cell viability of CN\1C(=O)/C(=C(\N=C1NC[C@@H](N)CC2=CC=CC=C2)C3=CC=NC=C3)C4=CC5=C(C=CC=C5)C=C4 [AMG-548] is strictly below 10 µM.
RESULT: FALSE

QUERY: AC50 cell viability strictly < 10 µM for this compound? O=C(Nc1ccncc1)C(=O)c1cn(Cc2ccc(Cl)cc2)c2ccccc12 [Indibulin]
RESULT: TRUE

QUERY: # strict comparison: is reported AC50 cell viability < 10 µM? input = CN1CCc2c(n(Cc3ccc(C(=O)NO)cc3)c3ccccc23)C1 [Compound 7]
RESULT: FALSE

QUERY: Check if AC50 cell viability falls below 10 µM for CC1(C)CC\C2=C(/O1)C3=C(C=CC=C3)C(=O)C2=O [beta-Lapachone] .
RESULT: FALSE

QUERY: Regarding O=C(NO)c1cnc(N2C[C@H]3C[C@@H]2CN3c2cc(C(F)(F)F)ccn2)nc1 [HDACi-02] , kindly confirm whether its AC50 cell viability is beneath 10 µM.
RESULT: TRUE

QUERY: Report whether reported AC50 cell viability is lower than 10 µM (strictly) for COC(=O)Nc1ccc(-c2nc(N3CCOCC3)c3cnn(C4CCN(Cc5cccnc5)CC4)c3n2)cc1 [WYE-687]
RESULT: FALSE

QUERY: Please determine if ClC1=CC=C(C=C1)C(C#N)C2=C(Cl)C=C(C=C2Cl)N3\N=C/C(=O)NC3=O (stereo unspecified) [Diclazuril] is below 10 µM in terms of AC50 cell viability.
RESULT: FALSE

QUERY: Quick check: AC50 cell viability of CC(C)C[C@@H](C(=O)N[C@H](C(=O)OC1CCCC1)c1ccccc1)[C@H](O)C(=O)NO [Tosedostat] under 10 µM?
RESULT: TRUE

QUERY: Is it true that AC50 cell viability reported for COc1ccc(Cl)c(Nc2ncnc3cc(OCC4CCN(C)CC4)c(OC)cc23)c1 is less than 10 µM?
RESULT: FALSE
